Listed below: phosphorylation by PKC epsilon values for each entry.
Target: PKC-epsilon (Homo sapiens)
Construct: purchased Calbiochem
Sequence (Q02156 1-737): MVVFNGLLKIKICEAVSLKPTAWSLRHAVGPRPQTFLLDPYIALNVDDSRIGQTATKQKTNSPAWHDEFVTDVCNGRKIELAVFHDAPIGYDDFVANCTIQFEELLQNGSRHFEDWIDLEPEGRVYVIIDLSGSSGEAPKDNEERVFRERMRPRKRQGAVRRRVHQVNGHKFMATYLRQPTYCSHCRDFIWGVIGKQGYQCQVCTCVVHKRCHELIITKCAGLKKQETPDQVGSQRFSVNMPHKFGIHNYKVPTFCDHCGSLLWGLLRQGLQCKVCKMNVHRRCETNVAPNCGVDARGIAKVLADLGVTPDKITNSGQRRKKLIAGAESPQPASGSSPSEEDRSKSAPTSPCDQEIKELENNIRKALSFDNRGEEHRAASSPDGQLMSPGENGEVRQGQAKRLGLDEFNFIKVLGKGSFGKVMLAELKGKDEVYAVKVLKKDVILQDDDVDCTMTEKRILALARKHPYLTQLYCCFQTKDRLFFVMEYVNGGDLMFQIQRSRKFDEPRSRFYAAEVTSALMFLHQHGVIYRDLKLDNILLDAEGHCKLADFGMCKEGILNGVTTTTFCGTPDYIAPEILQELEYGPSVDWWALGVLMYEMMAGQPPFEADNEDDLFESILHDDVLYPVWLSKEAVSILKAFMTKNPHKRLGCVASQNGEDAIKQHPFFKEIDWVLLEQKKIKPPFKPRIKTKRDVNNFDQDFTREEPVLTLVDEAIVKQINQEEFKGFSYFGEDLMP
Assay: In vitro kinase assay: peptide phosphorylation by PKC-epsilon
Format: biochemical
Details: peptide concentration 1 uM

SUBSTANCE	TARGET UNDER TEST	phosphorylation by PKC epsilon
165 (TEEKSKKRKKKHRKNSRKHK) [compound 165]	PKC-epsilon (Homo sapiens)	12
141 (VTDSQKRREILSRRPSYRKI) [compound 141]	PKC-epsilon (Homo sapiens)	31
118 (RPQNTLKASKKKKRASFKRK) [compound 118]	PKC-epsilon (Homo sapiens)	89
163 (PPRTPGWHQLQPRRVSFRGE) [compound 163]	PKC-epsilon (Homo sapiens)	14
125 (PLKEKKRERKTSSKSSVRKR) [compound 125]	PKC-epsilon (Homo sapiens)	48
149 (RVVQSVKHTKRKSSTVMK) [compound 149]	PKC-epsilon (Homo sapiens)	27
142 (ERHVAQKKSRLRRRASQLKI) [compound 142]	PKC-epsilon (Homo sapiens)	28
154 (KKFFTQGWAGWRKKTSFRKP) [compound 154]	PKC-epsilon (Homo sapiens)	29
146 (QAQRQIKRGAPPRRSSIRNA) [compound 146]	PKC-epsilon (Homo sapiens)	28
161 (KYKAFIRIPIPTRRHTFRRQ) [compound 161]	PKC-epsilon (Homo sapiens)	21

Data provenance is patent US20050064507A1.
